Assay: in vitro
Settings: African green monkey
Counter-ions that a name gives are not always drawn.
Entries and their CC50 at 3 days values follow.

Please review the entries below; each comes with its answer.
Compound: N#C[C@@]1(c2ccc3c(N)ncnn23)O[C@H](CO)[C@@H](O)[C@H]1O [GS-441524]
CC50 at 3 days: > 100 µM
//
Compound: CN(Cc1cc(Br)cc(Br)c1N)C1CCCCC1 [Bromhexine]
CC50 at 3 days: > 100 µM
//
Compound: COC[C@H]1C[C@@H](c2ncc(-c3ccc4c(c3)COc3cc5c(ccc6nc([C@@H]7CC[C@H](C)N7C(=O)[C@@H](NC(=O)OC)C(C)C)[nH]c65)cc3-4)[nH]2)N(C(=O)[C@H](NC(=O)OC)c2ccccc2)C1 [Velpatasvir]
CC50 at 3 days: > 100 µM
//
Compound: CC(c1cc2ccccc2s1)N(O)C(N)=O (centres unmarked) [Zileuton]
CC50 at 3 days: > 100 µM
//
Compound: COC(=O)N[C@H](C(=O)N1CCC[C@H]1c1nc(-c2ccc3c(c2)O[C@@H](c2ccccc2)n2c-3cc3cc(-c4c[nH]c([C@@H]5CCCN5C(=O)[C@@H](NC(=O)OC)C(C)C)n4)ccc32)c[nH]1)C(C)C [Elbasivir]
CC50 at 3 days: > 100 µM

Please report the recorded CC50 at 3 days for CC(=O)Oc1ccccc1C(=O)Nc1ncc([N+](=O)[O-])s1 [Nitazoxanide] .
8.7 µM

What would you report for CC(C)/N=c1\cc2n(-c3ccc(Cl)cc3)c3ccccc3nc-2cc1Nc1ccc(Cl)cc1 [Clofazimine] ?
34.3 µM

How about this compound: Cc1cccc(/C=N/Nc2cc(N3CCOCC3)nc(OCCc3ccccn3)n2)c1 [Apilimod mesylate]
> 100 µM
